system: CCRF-HSB2; assay: selective drug sensitivity score (sDSS, relative to normal bone marrow) (sDSS (score)); higher = more potent and effective on the cell line relative to normal bone marrow cells; conditions: 72 h;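 note: ALL cell lines in 384-well plates, five doses spanning 10,000-fold, each plate scaled between vehicle and 100 µmol/L benzalkonium chloride controls, sDSS an adapted area-under-curve metric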
METRIC: selective drug sensitivity score
Respond numerically, and do not add a unit to the figure.

INPUT: Query: selective drug sensitivity score; subject: C[C@@H]1COCCN1c1cc(C2([S@](C)(=N)=O)CC2)nc(-c2cc[nH]c3nccc2-3)n1 [AZD6738] (top concentration 25000 nM)
OUTPUT: 4.58

INPUT: Then this compound: CC(C)(C)c1cc(NC(=O)Nc2ccc(Oc3ccnc4[nH]c(=O)cnc34)cc2F)n(-c2ccccc2)n1 (top concentration 25000 nM)
OUTPUT: 3.12

INPUT: Then this compound: CO[C@H]1C[C@@H]2CC[C@@H](C)[C@@](O)(O2)C(=O)C(=O)N2CCCC[C@H]2C(=O)O[C@H]([C@H](C)C[C@@H]2CC[C@@H](OCCO)[C@H](OC)C2)CC(=O)[C@H](C)/C=C(\C)[C@@H](O)[C@@H](OC)C(=O)[C@H](C)C[C@H](C)/C=C/C=C/C=C/1C [Everolimus] (top concentration 100 nM)
OUTPUT: 4.8

INPUT: Then this compound: CN1CCC(CNc2ccc3ncc(-c4cccc(OC(F)(F)F)c4)n3n2)CC1 [SGI-1776] (top concentration 10000 nM)
OUTPUT: 3.12

INPUT: Then this compound: C[C@H]1C[C@@H](n2c(Nc3ccc(OC(F)(F)F)cc3)nc3cc(CCC(=O)O)ccc32)CC(C)(C)C1 (top concentration 10000 nM)
OUTPUT: 2.56

----------
system: TANOUE; assay: selective drug sensitivity score (sDSS, relative to normal bone marrow) (sDSS (score)); higher = more potent and effective on the cell line relative to normal bone marrow cells; settings: 72 h
Let's look at some compounds and their measured selective drug sensitivity score.

The following compounds have reported results that may help.
{"COMPOUND": "COc1cc(Nc2ncc3c(n2)-c2ccc(Cl)cc2C(c2c(F)cccc2OC)=NC3)ccc1C(=O)O [Alisertib] (top concentration 10000 nM)", "selective drug sensitivity score": -5.62}
{"COMPOUND": "CNC(=O)c1ccc(C)c(-n2c(C)cc(OCc3ccc(F)cc3F)c(Br)c2=O)c1 (top concentration 1000 nM)", "selective drug sensitivity score": 0}
{"COMPOUND": "COCCNCc1ccc(-c2cc3nccc(Oc4ccc(NC(=O)C5(C(=O)Nc6ccc(F)cc6)CC5)cc4F)c3s2)nc1 [Sitravatinib] (top concentration 2500 nM)", "selective drug sensitivity score": -0.42}

INPUT: Query: selective drug sensitivity score; subject: Cc1nc(Nc2n[nH]c3c2CN(C(=O)N[C@H](CN(C)C)c2ccccc2)C3(C)C)c2sccc2n1 (top concentration 10000 nM)
OUTPUT: -11.1

INPUT: Then this compound: C[C@@H](Nc1cc(F)cc(F)c1)c1cc(C(=O)N(C)C)cc2c(=O)cc(N3CCOCC3)oc12 [AZD-8186] (top concentration 1000 nM)
OUTPUT: -0.26

INPUT: Then this compound: COc1cc(C(=O)O)ccc1NC(=O)[C@@H]1N[C@@H](CC(C)(C)C)[C@](C#N)(c2ccc(Cl)cc2F)[C@H]1c1cccc(Cl)c1F [Idasanutlin] (top concentration 10000 nM)
OUTPUT: -12.5

INPUT: Then this compound: CONC(=O)c1ccccc1Nc1cc(Nc2cc(C)nn2C(C)C)ncc1Cl (top concentration 1000 nM)
OUTPUT: 0.36

INPUT: Then this compound: CC(C)C[C@H](NC(=O)[C@@H](COC(C)(C)C)NC(=O)[C@H](Cc1ccc(O)cc1)NC(=O)[C@H](CO)NC(=O)[C@H](Cc1c[nH]c2ccccc12)NC(=O)[C@H](Cc1cnc[nH]1)NC(=O)[C@@H]1CCC(=O)N1)C(=O)N[C@@H](CCCNC(=N)N)C(=O)N1CCC[C@H]1C(=O)NNC(N)=O [Goserelin] (top concentration 10000 nM)
OUTPUT: -0.06

INPUT: Then this compound: CC[C@H](CO)Nc1nc(NCc2ccccc2)c2ncn(C(C)C)c2n1 [Seliciclib] (top concentration 10000 nM)
OUTPUT: -1.04

INPUT: Then this compound: Nc1cccc2c1C(=O)N(C1CCC(=O)NC1=O)C2=O (configuration not stated) [Pomalidomide] (top concentration 10000 nM)
OUTPUT: -0.26

INPUT: Then this compound: C[C@]1(O)C[C@@H](c2nc(-c3ccc4ccc(-c5ccccc5)nc4c3)c3c(N)nccn32)C1 [Linsitinib] (top concentration 10000 nM)
OUTPUT: -3.18

INPUT: Then this compound: COc1ccc(COc2cc3oc(=O)c4cc(C(C)O)ccc4c3cc2OC)cc1 (configuration not stated) [Palomid-529] (top concentration 10000 nM)
OUTPUT: 0.36

----------
test system: KOPN-8; assay: selective drug sensitivity score (sDSS, relative to normal bone marrow) (sDSS (score)); higher = more potent and effective on the cell line relative to normal bone marrow cells; conditions: 72 h
METRIC: selective drug sensitivity score

The following compounds have reported results that may help.
{"COMPOUND": "CC(=O)O[C@@]12CO[C@@H]1C[C@H](O)[C@@]1(C)C(=O)[C@H](O)C3=C(C)[C@@H](OC(=O)[C@H](O)[C@@H](NC(=O)OC(C)(C)C)c4ccccc4)C[C@@](O)([C@@H](OC(=O)c4ccccc4)[C@H]21)C3(C)C [Docetaxel] (top concentration 1000 nM)", "ASSAY_SYSTEM": "KOPN-8", "METRIC": "selective drug sensitivity score", "TEST_VALUE": 23.7}
{"COMPOUND": "COc1cc2c(Nc3ccc(Cl)c(Cl)c3F)ncnc2cc1OC[C@@H]1C[C@@H]2CN(C)C[C@@H]2C1 [Tesevatinib] (top concentration 1000 nM)", "ASSAY_SYSTEM": "KOPN-8", "METRIC": "selective drug sensitivity score", "TEST_VALUE": -0.86}
{"COMPOUND": "CCNc1nc(Nc2cc(F)c(C(=O)N3CCOCC3)cc2OC)ncc1C(F)(F)F [GNE-7915] (top concentration 1000 nM)", "ASSAY_SYSTEM": "KOPN-8", "METRIC": "selective drug sensitivity score", "TEST_VALUE": -0.06}
{"COMPOUND": "Cc1sc2c(c1C)C(c1ccc(Cl)cc1)=N[C@@H](CC(=O)NCCCCNC(=O)COc1cccc3c1C(=O)N(C1CCC(=O)NC1=O)C3=O)c1nnc(C)n1-2 (stereo not given in full) [dBET1] (top concentration 10000 nM)", "ASSAY_SYSTEM": "KOPN-8", "METRIC": "selective drug sensitivity score", "TEST_VALUE": 7.82}

Next, consider the following compound.
INPUT: Query: selective drug sensitivity score; subject: O=C(/C=C/c1cccc(S(=O)(=O)Nc2ccccc2)c1)NO [Belinostat] (top concentration 10000 nM)
OUTPUT: 17.8

----------
tested on: TMD5; test: selective drug sensitivity score (sDSS, relative to normal bone marrow) (sDSS (score)); higher = more potent and effective on the cell line relative to normal bone marrow cells; conditions: 72 h
Let's look at some molecules and their measured selective drug sensitivity score.

The following molecules have reported results that may help.
{"MOLECULE": "C[C@@H]1COCCN1c1cc(C2([S@](C)(=N)=O)CC2)nc(-c2cc[nH]c3nccc2-3)n1 [AZD6738] (top concentration 25000 nM)", "TEST_VALUE": 5.88}
{"MOLECULE": "CC[C@@H]1C(=O)OC[C@@H]1Cc1cncn1C [Pilocarpine] (top concentration 40000 nM)", "TEST_VALUE": -1.56}
{"MOLECULE": "Nc1cc(C(F)(F)F)c(-c2cc(N3CCOCC3)nc(N3CCOCC3)n2)cn1 [Buparlisib] (top concentration 10000 nM)", "TEST_VALUE": -1.82}
{"MOLECULE": "CC(C)(C)c1cc(NC(=O)Nc2ccc(Oc3ccnc4[nH]c(=O)cnc34)cc2F)n(-c2ccccc2)n1 (top concentration 25000 nM)", "TEST_VALUE": 2.32}

INPUT: Query: selective drug sensitivity score; subject: O=C(CCCCCCNC(=O)c1cnc(N(c2ccccc2)c2ccccc2)nc1)NO [Rocilinostat] (top concentration 10000 nM)
OUTPUT: 0.04

----------
Let's look at some compounds and their measured selective drug sensitivity score.
tested on: COG-LL-355h; test: selective drug sensitivity score (sDSS, relative to normal bone marrow) (sDSS (score)); higher = more potent and effective on the cell line relative to normal bone marrow cells; conditions: 72 h
Respond numerically, and do not add a unit to the figure.

{"COMPOUND": "C=CC(=O)Nc1cc(Nc2nccc(-c3cn(C)c4ccccc34)n2)c(OC)cc1N(C)CCN(C)C [Osimertinib] (top concentration 2500 nM)", "selective drug sensitivity score": 2.98}
{"COMPOUND": "CNC(=O)c1ccc(N2C(=S)N(c3cnc(C#N)c(C(F)(F)F)c3)C(=O)C23CCC3)cc1F [Apalutamide] (top concentration 10000 nM)", "selective drug sensitivity score": 0}
{"COMPOUND": "CC(C)Nc1cc(-c2c[nH]c(C(=O)N[C@H](CO)c3cccc(Cl)c3)c2)c(Cl)cn1 [Ulixertinib] (top concentration 10000 nM)", "selective drug sensitivity score": 3.82}
{"COMPOUND": "CC[C@@H]1CN(C(=O)NCC(F)(F)F)C[C@@H]1c1cnc2cnc3[nH]ccc3n12 [Upadacitinib] (top concentration 10000 nM)", "selective drug sensitivity score": -7.16}
{"COMPOUND": "C=CC[C@@H]1/C=C(\\C)C[C@H](C)C[C@H](OC)[C@H]2O[C@@](O)(C(=O)C(=O)N3CCCC[C@H]3C(=O)O[C@H](/C(C)=C/[C@@H]3CC[C@@H](O)[C@H](OC)C3)[C@H](C)[C@@H](O)CC1=O)[C@H](C)C[C@@H]2OC [Tacrolimus] (top concentration 10000 nM)", "selective drug sensitivity score": 3.18}

Next, consider the following compound.
INPUT: Query: selective drug sensitivity score; subject: CN[C@@H](C)C(=O)N[C@H](C(=O)N1CCC[C@H]1c1nc(C(=O)c2ccc(F)cc2)cs1)C1CCCCC1 [NVP-LCL161] (top concentration 25000 nM)
OUTPUT: 12.2
